Measurement notes: A qHTS for Small Molecule Inhibitors of Shiga Toxin; note: 0% is about no effect
Test parameters: Vero cells, Shiga toxin protein synthesis inhibition reporter; at 38.7 µM, stronger effect = higher value
Out of some 290,000 compounds screened, about 27,000 (9.3%) were called active. The entries come from a sample that favours actives as a whole.
# maps each entry to its inhibition

# Compound, inhibition (%)
data = [
    ("Clc1cccc(N=C2NN=C(c3ccc4c(c3)OCCO4)CS2)c1", 95.2),
    ("COc1ccc(-c2nc(SCC(=O)N3CCCC3)n[nH]2)cc1", 38.5),
    ("O=C(COc1ccc(Cl)cc1Cl)N/N=C/c1ccccn1", 8.65),
    ("COc1ccc(N(C)S(=O)(=O)c2ccc3c(c2)CC(C)N3C(=O)C2CC2)c(OC)c1 (centres undefined)", 14.9),
    ("Cc1nc2cc(NC(=O)NCc3ccccc3)ccc2o1", 44.8),
    ("CCOCCCn1c(SCC(=O)Nc2cc(OC)ccc2OC)nc2ccccc2c1=O", -1.05),
    ("CCOC(=O)c1c(C)[nH]c(C)c1S(=O)(=O)NCCCc1ccco1", -3.37),
    ("COc1ccc(N2CCN(CCNC(=O)Nc3cc(Cl)ccc3Cl)CC2)cc1", 4.24),
    ("COc1ccc(S(=O)(=O)N2CCN(C(=O)N(C)C)C2C)cc1 (centres undefined)", -15.4),
    ("COc1ccccc1CCNC(=O)C1CCN(C(=O)/C=C/c2ccccc2)CC1", 39.9),
    ("Oc1oc(-c2ccccc2Br)nc1/C=N/c1ccccn1", 102),
    ("C=CCNC(=S)N/N=C/c1ccc(OCc2ccccc2)cc1", -15.4),
    ("N#Cc1c(-c2ccccc2)c(-c2ccccc2)n[nH]c1=O", -6.49),
    ("CCOc1ccc(CN(C)C(=O)c2ccc(=O)[nH]c2)cc1", -3.04),
    ("CCN(CC)S(=O)(=O)c1ccc(N2CCOCC2)c(NC(=O)C2CSC3(C)CCC(=O)N23)c1 (centres undefined)", -6.24),
    ("Cc1ccc2c(c1)C(c1ccccc1)N(C(=O)c1ccc(F)cc1)CC(=O)N2 (centres undefined)", -4.25),
    ("COc1ccc(NC(=O)NN2CCN(C)CC2)c(OC)c1", -17.8),
    ("CCCc1nn(C)c2c(=O)[nH]c(-c3cc(S(N)(=O)=O)ccc3OCC)nc12", -4.47),
    ("Cc1cc2ccccn2c1C(=O)c1cccc(F)c1", 21),
    ("CCCC[C@H]1COCCS(=O)(=O)N1Cc1cccc(Cl)c1", -0.556),
    ("N#Cc1c(-c2ccccc2)cc(-c2ccccc2)nc1SCC(=O)O", -7.81),
    ("Cc1ccc(/C=N/NC(=O)CN2CCN(Cc3ccccc3)CC2)s1", 14.8),
    ("CSc1ccc(S(=O)(=O)N2CCC(C(=O)NCc3ccncc3)CC2)cc1", -6.82),
    ("COc1ccccc1NC(=O)CN(c1ccccc1OC)S(=O)(=O)c1ccccc1", -1.35),
    ("O=C(C1CCCN(S(=O)(=O)c2ccc([N+](=O)[O-])cc2)C1)N1CCCCC1 (centres undefined)", 2.21),
    ("CCc1ccc(-c2nc(SCC(=O)NC3CCCC3)n[nH]2)cc1", 22.7),
    ("CCC(C)[C@H]1COCCS(=O)(=O)N1Cc1ccc(C)cc1 (some centres undefined)", -2.97),
    ("c1ccc(CN2CCC(N=C3NN=C(c4ccc5c(c4)OCCO5)CS3)CC2)cc1", 116),
    ("COc1ccc(NC(=O)c2cccc(Cl)c2)c[n+]1[O-]", -4.4),
    ("CC(C)n1c(O)c(N=Nc2ccccn2)c2ccccc21", 11.1),
    ("COc1ccc(NC(=O)CN2C(=O)COc3ccc(S(=O)(=O)N4CCOCC4)cc32)cc1", -3.8),
    ("O=S1(=O)CCOC[C@H](CC2CCCCC2)N1Cc1ccc(F)cc1", 19.8),
    ("CC(C)(C)NC(=O)NC(=O)COC(=O)C1c2ccccc2Oc2ccccc21", -5.17),
    ("CS(=O)(=O)N(CC(=O)N1CCN(Cc2ccccc2)CC1)c1ccc2c(c1)OCCO2", -18.5),
    ("O=C1CSC(=S)N1c1ccc(Cl)c(Cl)c1", 24.6),
    ("CC(NCCc1ccc(S(N)(=O)=O)cc1)C(=O)NCc1ccccc1 (centres undefined)", 45.3),
    ("COc1ccc(Cl)cc1-n1c(=S)sc2c(=O)n(-c3ccc(F)cc3)c(SCC(=O)O)nc21", 19.4),
    ("CCCCc1ccc(NC(=O)NCc2cccnc2)cc1", 6.04),
    ("COc1ccc(CNC(=O)C(NS(=O)(=O)c2cccc3nsnc23)C(C)C)cc1 (centres undefined)", -7.36),
]

src = PubChem BioAssay AID2315
